These data points were gathered from the supplement of paper PMC5579334.

# reported drug sensitivity score; entries follow
tested on: HSC2 (primary human Schwann cells); experiment: drug sensitivity score (DSS, CellTiter-Glo viability, 72 h) (DSS (dimensionless)); higher = more sensitive; extreme values may be limits of the assay
Simply state the number, no unit and no words.

// drug sensitivity score lookup, key: CC[C@]1(O)C[C@@H]2CN(CCc3c([nH]c4ccccc34)[C@@](C(=O)OC)(c3cc4c(cc3OC)N(C)[C@H]3[C@@](O)(C(=O)OC)[C@H](OC(C)=O)[C@]5(CC)C=CCN6CC[C@]43[C@@H]65)C2)C1 [Vinblastine] (max concentration tested 1000 nM)
23.9

// drug sensitivity score lookup, key: C#Cc1cccc(Nc2ncnc3cc(OC)c(OCCCCCCC(=O)NO)cc23)c1 [CUDC-101] (max concentration tested 10000 nM)
15

// drug sensitivity score lookup, key: COc1ccc(C2=N[C@@H](c3ccc(Cl)cc3)[C@@H](c3ccc(Cl)cc3)N2C(=O)N2CCNC(=O)C2)c(OC(C)C)c1 [Nutlin-3] (max concentration tested 10000 nM)
7.69

====

system: S462; experiment: % inhibition of CellTiter-Glo viability at highest tested concentration (72 h), relative to DMSO and benzethonium chloride controls; higher = more inhibition
reported.property: % inhibition (%)
The reply should be a number in %, with the unit left off.

# count of solved cases: 7
• O=NN(CCCl)C(=O)NC1CCCCC1 [Lomustine] (max concentration tested 10000 nM) = -9.57
• C[C@@H]1C[C@H]2[C@@H]3CCC4=CC(=O)C=C[C@]4(C)[C@@]3(F)[C@@H](O)C[C@]2(C)[C@@]1(O)C(=O)CO [Dexamethasone] (max concentration tested 10000 nM) = 9.85
• COc1ccccc1S(=O)(=O)Nc1ccc2c(c1)CN(C)C(=O)N2 [PFI-1] (max concentration tested 10000 nM) = 53.6
• CC(C)NC[C@@H](C(=O)N1CCN(c2ncnc3c2[C@H](C)C[C@H]3O)CC1)c1ccc(Cl)cc1 [GDC-0068] (max concentration tested 10000 nM) = 13.5
• Nc1ccccc1NC(=O)c1ccc(CNC(=O)OCc2cccnc2)cc1 [Entinostat] (max concentration tested 10000 nM) = 105
• O=C(Nc1c[nH]nc1-c1nc2ccc(CN3CCOCC3)cc2[nH]1)NC1CC1 [AT9283] (max concentration tested 1000 nM) = 84.5
• Nc1cccc2c1CN(C1CCC(=O)NC1=O)C2=O (stereo not drawn) [Lenalidomide] (max concentration tested 10000 nM) = 2.04

Here's the next entry for you.
// % inhibition lookup, key: C/C(=C\c1csc(C)n1)[C@@H]1C[C@@H]2O[C@]2(C)CCC[C@H](C)[C@H](O)[C@@H](C)C(=O)C(C)(C)[C@@H](O)CC(=O)O1 [Patupilone] (max concentration tested 1000 nM)
92.6

====

# reported drug sensitivity score; entries follow
test system: HS-Sch-2; experiment: drug sensitivity score (DSS, CellTiter-Glo viability, 72 h) (DSS (dimensionless)); higher = more sensitive; extreme values may be limits of the assay
Simply state the number, no unit and no words.

• COc1cccc(OCCCN)c1-c1cc(Nc2cnc(C#N)cn2)n[nH]1 [Prexasertib] (max concentration tested 10000 nM) = 29.9

Recorded drug sensitivity score for O=C(Nc1cccc(NC(=O)c2cccc(O)c2O)c1)c1cccc(O)c1O [MST-312] (max concentration tested 10000 nM) with HS-Sch-2, please?
10.8

Recorded drug sensitivity score for O=C(Cc1ccc(-c2ccc(OCCN3CCOCC3)cc2)cn1)NCc1ccccc1 [KX2-391] (max concentration tested 10000 nM) with HS-Sch-2, please?
28.3

Recorded drug sensitivity score for O=C(c1ccc(C(=O)N2CCC(N3CCCC3)CC2)c(Nc2ccccc2)c1)N1CCC(N2CCCC2)CC1 [UNC1215] (max concentration tested 30000 nM) with HS-Sch-2, please?
0.38
